Field: hERG current change (%, negative = inhibition) at 10uM. Provide a value for each of the compounds that follow.
tested system: human ether-à-go-go-related gene (hERG) potassium channel (human, UniProt Q12809);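 also: peak tail current of the secondary pulse compared with the same well before compound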
Sequence (Q12809 whole entry, looked up): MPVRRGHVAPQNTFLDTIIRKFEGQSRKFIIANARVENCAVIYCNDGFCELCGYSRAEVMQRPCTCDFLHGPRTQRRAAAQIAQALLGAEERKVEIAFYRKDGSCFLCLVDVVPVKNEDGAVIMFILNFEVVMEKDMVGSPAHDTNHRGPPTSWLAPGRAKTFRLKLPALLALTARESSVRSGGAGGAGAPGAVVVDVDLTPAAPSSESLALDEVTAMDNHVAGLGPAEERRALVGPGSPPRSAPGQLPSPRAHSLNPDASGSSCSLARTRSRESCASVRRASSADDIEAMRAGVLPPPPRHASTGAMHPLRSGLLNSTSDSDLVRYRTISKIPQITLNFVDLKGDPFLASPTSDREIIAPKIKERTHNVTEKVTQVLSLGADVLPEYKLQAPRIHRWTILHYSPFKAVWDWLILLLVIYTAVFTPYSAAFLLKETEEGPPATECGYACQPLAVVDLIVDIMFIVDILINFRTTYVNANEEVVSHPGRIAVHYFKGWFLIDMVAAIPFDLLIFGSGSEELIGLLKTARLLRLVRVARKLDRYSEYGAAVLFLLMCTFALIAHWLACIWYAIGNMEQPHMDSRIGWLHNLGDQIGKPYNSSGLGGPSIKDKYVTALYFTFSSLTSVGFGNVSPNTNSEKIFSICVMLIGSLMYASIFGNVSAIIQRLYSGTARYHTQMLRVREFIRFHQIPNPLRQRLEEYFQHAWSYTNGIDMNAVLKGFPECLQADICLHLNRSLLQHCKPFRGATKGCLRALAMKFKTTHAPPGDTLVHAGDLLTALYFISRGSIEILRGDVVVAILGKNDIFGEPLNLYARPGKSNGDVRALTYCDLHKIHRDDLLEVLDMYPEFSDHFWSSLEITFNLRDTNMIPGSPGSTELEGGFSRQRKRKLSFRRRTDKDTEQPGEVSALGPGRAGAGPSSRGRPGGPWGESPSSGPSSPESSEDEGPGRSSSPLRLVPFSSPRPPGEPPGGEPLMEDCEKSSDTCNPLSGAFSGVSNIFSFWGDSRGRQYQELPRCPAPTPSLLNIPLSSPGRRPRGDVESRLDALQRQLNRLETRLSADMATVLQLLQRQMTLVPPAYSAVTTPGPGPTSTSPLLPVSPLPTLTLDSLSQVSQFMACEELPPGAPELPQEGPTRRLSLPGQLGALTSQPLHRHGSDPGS
method: primary screen, population patch clamp on CHO cells stably expressing hERG; higher = less effect of the substance
Out of some 310,000 compounds screened, about 14,000 (4.5%) showed an effect of 50% or more. The effect is printed as a negative number. This is one part of a sample in which strong results are shown more often than they occur.
Your answer should be a plain number; it is taken to be in %.

Just so you know, measured hERG current change (%, negative = inhibition) at 10uM for COc1ccc(C2NS(=O)(=O)OCC2C)cc1 (stereo not drawn) came out at 16.4

hERG current change (%, negative = inhibition) at 10uM reading for O=C(COC(=O)C12CC3CC(CC(O)(C3)C1)C2)NCCc1ccc(Cl)cc1 : -10.8

Measured hERG current change (%, negative = inhibition) at 10uM, O=C(/C=C/c1cccs1)NCc1ccccc1 : -2.08

# compound O=C(CSc1ccccc1)Nc1nccs1 ; its hERG current change (%, negative = inhibition) at 10uM = -3.78

The reported value for O=C(NN1CCOCC1)c1ccc(F)cc1 in terms of hERG current change (%, negative = inhibition) at 10uM is 1.47

Per the records, this compound ( Cc1ccc(S(=O)(=O)N2CCN(CC(=O)N/N=C/c3ccc(Br)s3)CC2)cc1 ) has hERG current change (%, negative = inhibition) at 10uM equal to -49

---

Exercise: state measured hERG current change (%, negative = inhibition) at 10uM for each of the molecules provided.
tested system: human ether-à-go-go-related gene (hERG) potassium channel (human);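 also: peak tail current of the secondary pulse compared with the same well before compound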
method: primary screen, population patch clamp on CHO cells stably expressing hERG; higher = less effect of the substance
In all, about 310,000 compounds went through this assay and about 14,000 (4.5%) showed an effect of 50% or more. Effects have a minus sign here. The sample as a whole holds a higher share of strong results than the screen did.
Answer format: numeric, % implied, no suffix.

Measured hERG current change (%, negative = inhibition) at 10uM for this entry Cc1cccc(OCCn2c(=O)n(C)c3ccccc32)c1 on human ether-à-go-go-related gene (hERG) potassium channel (human): -13.6

For the molecule CCOC(=O)Cn1c(=N)n(CCOc2cccc(C)c2)c2ccccc21.Cl , the measured hERG current change (%, negative = inhibition) at 10uM on human ether-à-go-go-related gene (hERG) potassium channel (human) was -62.2

So the reported hERG current change (%, negative = inhibition) at 10uM for Cl.N=c1n(CCCOc2ccc(Br)cc2)c2ccccc2n1CC(N)=O , on human ether-à-go-go-related gene (hERG) potassium channel (human), turned out to be -44.7

Log: human ether-à-go-go-related gene (hERG) potassium channel (human), molecule CCOC(=O)Cn1c(=N)n(CCOc2ccc(OC)cc2)c2ccccc21.Cl , hERG current change (%, negative = inhibition) at 10uM = -56.4

Entry Cc1cc(C)c(OCCCCN2CCC(C)CC2)c(Br)c1 , tested on human ether-à-go-go-related gene (hERG) potassium channel (human), has a reported hERG current change (%, negative = inhibition) at 10uM of -72.7

Kindly note: human ether-à-go-go-related gene (hERG) potassium channel (human), CCOC(=O)Cn1c(=N)n(Cc2ccccc2F)c2ccccc21.Cl , hERG current change (%, negative = inhibition) at 10uM value reported: -28.3

GET /values?item= CCOC(=O)Cn1c(=N)n(CCOc2ccc(F)cc2)c2ccccc21.Cl &system= human ether-à-go-go-related gene (hERG) potassium channel (human) returns hERG current change (%, negative = inhibition) at 10uM: -65.8

Measured on human ether-à-go-go-related gene (hERG) potassium channel (human), Cc1cc(Cl)c(OCCCN2CCCCC2)c(Br)c1.O=C(O)C(=O)O has a documented hERG current change (%, negative = inhibition) at 10uM of -68.1

Form field hERG current change (%, negative = inhibition) at 10uM for item CCOC(=O)Cn1c(=O)n(CC(=O)OCC)c2ccccc21 on human ether-à-go-go-related gene (hERG) potassium channel (human): 12.3

Recorded hERG current change (%, negative = inhibition) at 10uM for Cc1cc(Cl)c(OCCOCCN2CCC(C)CC2)c(Br)c1.O=C(O)C(=O)O on human ether-à-go-go-related gene (hERG) potassium channel (human) was -57.6
